# ASSAY_SYSTEM: Gal(b1-4)GlcNAc(b1-3)Gal(b1-4)GlcNAc
# PROCEDURE_SUMMARY: glycan array binding signal (z-score within array); higher = stronger binding
# COND: glycan notation: IUPAC condensed, linker removed
Many of the other results were omitted from the sample, so the strongest signals are more common in it than they were.
MEASURED_ENDPOINT: glycan array binding signal (z-score)

| BINDER | RECORDED_RESULT |
| --- | --- |
| SJCP3842 (Schistosoma japonicum) (protein) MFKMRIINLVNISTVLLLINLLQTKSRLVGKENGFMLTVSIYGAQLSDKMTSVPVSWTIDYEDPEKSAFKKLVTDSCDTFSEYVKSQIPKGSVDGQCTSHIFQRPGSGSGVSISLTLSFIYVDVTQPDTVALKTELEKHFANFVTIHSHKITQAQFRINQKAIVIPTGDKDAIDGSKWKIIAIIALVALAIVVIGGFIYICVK | -0.05 |
| Epa2 (Candida glabrata) (protein) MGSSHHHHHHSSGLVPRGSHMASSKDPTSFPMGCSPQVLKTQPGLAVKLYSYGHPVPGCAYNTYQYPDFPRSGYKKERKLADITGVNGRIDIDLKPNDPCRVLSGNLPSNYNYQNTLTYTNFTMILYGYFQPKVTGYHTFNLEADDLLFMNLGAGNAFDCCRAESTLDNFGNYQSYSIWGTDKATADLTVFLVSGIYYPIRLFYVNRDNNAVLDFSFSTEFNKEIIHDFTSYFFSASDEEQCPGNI | -0.158 |
| Galatrox (Botrops atrox), P0DM53 (protein) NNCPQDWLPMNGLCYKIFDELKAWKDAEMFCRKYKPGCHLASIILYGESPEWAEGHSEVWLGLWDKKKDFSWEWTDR | 3.16 |
